assay.notes: Plasma pharmacokinetics of DEBIO1143 in patients (LC-MS/MS)
Type: in vivo, human
protocol.conditions: human, plasma, oral, 40 mg, day 5, n=1
property.measured: Cmax

For this compound ( CN[C@@H](C)C(=O)N[C@H]1CN(C(=O)CC(C)C)CC[C@H]2CC[C@@H](C(=O)NC(c3ccccc3)c3ccccc3)N2C1=O [DEBIO1143] ), measured Cmax is 184 ng/mL

###

assay.notes: Plasma pharmacokinetics of DEBIO1143 in patients (LC-MS/MS)
Type: in vivo, human
protocol.conditions: human, plasma, oral, 260 mg, day 1, n=3, mean (SD)
Method: Pharmacokinetic samples were taken from all patients on day 1 (predose, 0.5, 1, 2, 3, 4, 6, 8, 12, 18 h postdose) and on day 5 (predose, 0.5, 1, 2, 3, 4, 6, 8 h postdose) of the first cycle. […] C max and t max were determined by direct assessment of the observed concentration versus time curves. […] For the detection of cIAP-1 in paraffin-embedded human tissue, a validated immunohistochemical (IHC) assay was used. […] Plasma biomarkers were measured through commercial ELISAs. […]
property.measured: AUC(0-inf) (ng·h/mL)
One number for each entry, in ng·h/mL.

For this compound ( `CN[C@@H](C)C(=O)N[C@H]1CN(C(=O)CC(C)C)CC[C@H]2CC[C@@H](C(=O)NC(c3ccccc3)c3ccccc3)N2C1=O` ), measured AUC(0-inf) is 17900

###

assay.notes: Plasma pharmacokinetics of DEBIO1143 in patients (LC-MS/MS)
Format: in vivo, human
protocol.conditions: human, plasma, oral, 600 mg, day 5, n=3, mean (SD); read-out: T 1/2 (converted)
property.measured: half-life (h)
Answers are plain numbers, in h.

For this compound ( CN[C@@H](C)C(=O)N[C@H]1CN(C(=O)CC(C)C)CC[C@H]2CC[C@@H](C(=O)NC(c3ccccc3)c3ccccc3)N2C1=O [DEBIO1143] ), measured half-life is 3.54

###

assay.notes: Plasma pharmacokinetics of DEBIO1143 in patients (LC-MS/MS)
Assay type: in vivo, human
protocol.conditions: human, plasma, oral, 10 mg, day 5, n=1; read-out: T 1/2 (converted)
property.measured: half-life (h)
Numbers only, in h.

For this molecule ( `CN[C@@H](C)C(=O)N[C@H]1CN(C(=O)CC(C)C)CC[C@H]2CC[C@@H](C(=O)NC(c3ccccc3)c3ccccc3)N2C1=O` ), measured half-life is 2.53

###

assay.notes: Plasma pharmacokinetics of DEBIO1143 in patients (LC-MS/MS)
Format: in vivo, human
protocol.conditions: human, plasma, oral, 10 mg, day 1, n=1
property.measured: AUC(0-t) (ng·h/mL)
Numbers only, in ng·h/mL.

For this compound ( `CN[C@@H](C)C(=O)N[C@H]1CN(C(=O)CC(C)C)CC[C@H]2CC[C@@H](C(=O)NC(c3ccccc3)c3ccccc3)N2C1=O` ), measured AUC(0-t) is 129
